Measured abundance fitness, listed per entry.
B1: Androgen receptor, residues 557 to 632; numbered along this chain, P10275 (parent)
chain: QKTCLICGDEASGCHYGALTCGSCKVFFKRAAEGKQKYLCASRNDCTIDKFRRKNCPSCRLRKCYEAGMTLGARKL

# Variants of: B1
# PROCEDURE DETAILS: abundance fitness (aPCA) (normalised: wild type 0, dead -1); higher = more abundant; growth selection in yeast, the domain comes from the species named
# TEST PARAMETERS: Homo sapiens

Please review the entries below; each comes with its answer.
[
  {
    "SEQUENCE STRING": "QKTCLICGDEASGCHYGALTCGSFKVFFKRAAEGKQKYLCASRNDCTIDKFRRKNCPSCRLRKCYEAGMTLGARKL [C24F]",
    "abundance fitness": -1.06
  },
  {
    "SEQUENCE STRING": "QKTCLICGDEASGCHYGALTCGSCKVFFKRAAEGKQKYLCASRNDCTIDKFRRKNCPQCRLRKCYEAGMTLGARKL [S58Q]",
    "abundance fitness": -0.134
  },
  {
    "SEQUENCE STRING": "QKTCLICGDEASGCHYGALTCGSCKVFFKRAAEGKQKYLEASRNDCTIDKFRRKNCPSCRLRKCYEAGMTLGARKL [C40E]",
    "abundance fitness": -0.576
  },
  {
    "SEQUENCE STRING": "QKTCLICGDEASGCHYGALTCGSCKVFFKRAAEGKDKYLCASRNDCTIDKFRRKNCPSCRLRKCYEAGMTLGARKL [Q36D]",
    "abundance fitness": 0.048
  },
  {
    "SEQUENCE STRING": "QKTCLICGDEASGCHWGALTCGSCKVFFKRAAEGKQKYLCASRNDCTIDKFRRKNCPSCRLRKCYEAGMTLGARKL [Y16W]",
    "abundance fitness": -0.122
  }
]

# lookup: abundance fitness of QKTCLICGDEASGCHYGALTCGSCKVFFKRAAEGKQKYLCASRNDCTIDKFRRKNCPSCRLRKCYEAGMTLGAMKL [R74M]
-0.056

# lookup: abundance fitness of QKTCLICGDEASGCHYGALTCGSCKVFFKRAAEGKQKYLCASRNDCTICKFRRKNCPSCRLRKCYEAGMTLGARKL [D49C]
-0.538

# lookup: abundance fitness of QKTCLICGDEASGCHYGALGCGSCKVFFKRAAEGKQKYLCASRNDCTIDKFRRKNCPSCRLRKCYEAGMTLGARKL [T20G]
-0.539
